- Assay Remarks: CCTE_Harrill_HTTr_Viability_MCF7: CCTE's 6-hour Cell Viability Assessment for the High-Throughput Transcriptomics (HTTr) Platform, in MCF-7 cells cultured in DMEM + 10% fetal bovine serum, Harrill Lab (AID 2284010)
Activity calls are given as the source filed them. How the source made its calls: active means hit-call score of the fitted dose curve at least 0.9, where 1 is the maximum; inactive means score below 0.9.
Respond only with the outcome that fits, drawn from yes (1) (active), no (0) (inactive)

>  <Molecule>
CC(C)(C)c1ccc(O)c(C(C)(C)C)c1

>  <Group Label>
no (0)

$$$$
>  <Molecule>
CCN(CC)CCNc1ccc(CNC=O)c2sc3ccc(OC)cc3c(=O)c12

>  <Group Label>
no (0)

$$$$
>  <Molecule>
CC#C[C@]1(O)CC[C@H]2[C@@H]3CCC4=CC(=O)CCC4=C3[C@@H](c3ccc(N(C)C)cc3)C[C@@]21C

>  <Group Label>
no (0)

$$$$

Lab log entry: "Cc1cc(C)c(O)c(C)c1" — outcome as called in the assay? no (0)

Record request — test call for "C[C@@H]1C[C@H]2[C@@H]3CCC4=CC(=O)C=C[C@]4(C)[C@@]3(F)[C@@H](O)C[C@]2(C)[C@@]1(O)C(=O)COP(=O)(O)O" no (0)

Give the logged outcome of this assay for the following molecule: "O=C(O)Cc1cc(I)c(Oc2cc(I)c(O)c(I)c2)c(I)c1" no (0)

Answer briefly: the call reported for OC1CCC(C2CCCCC2)CC1 (stereo unspecified) in this assay. no (0)

GET /call?item= "CC[C@H](C)[C@@H](C(=O)O)n1sc2ccccc2c1=O" returns the recorded outcome of this test. no (0)

---

- Assay Remarks: ATG_Oct_MLP_CIS: Attagene CIS-FACTORIAL HepG2 Assay for human Octamer-Binding Transcription Factor (Oct) (AID 2282993)
- Conditions Used: HepG2 Attagene cis-factorial Oct reporter, mRNA; actives raise or lower the signal
Activity calls are given as the source filed them. Rule for the calls: active = hit-call score of the fitted dose curve at least 0.9, where 1 is the maximum; inactive = score below 0.9.
Would you mind answering with one of these outcomes? YES (active), NO (inactive)

Would you please look over these solved cases?
>  <Cpd Smiles>
Nc1cccc2c(N)cccc12

>  <Group Label>
NO

$$$$
>  <Cpd Smiles>
C[C@@H]1C[C@H]2[C@@H]3CCC4=CC(=O)C=C[C@]4(C)[C@@]3(F)[C@@H](O)C[C@]2(C)[C@@]1(O)C(=O)COP(=O)(O)O

>  <Group Label>
NO

$$$$
>  <Cpd Smiles>
CCCCCCCCC(=O)O

>  <Group Label>
NO

$$$$

As a next step, examine the compound that follows.
Record lookup: outcome of this test for "Cc1cc(C)c(O)c(C)c1" ? YES

---

- Assay System: bovine Estrogen Receptor (ER), ESR1 (gene 407238)
- Assay Remarks: NVS_NR_bER: NovaScreen (NVS) Nuclear Receptor Binding Assay for bovine Estrogen Receptor (ER) (AID 2283345);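 further: actives lower the bound radioligand count which means they displace the ER ligand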
Inconclusive results are not listed. The source made the active and inactive calls. How the source made its calls: active means hit-call score of the fitted dose curve at least 0.9, where 1 is the maximum; inconclusive means response in the unintended direction; inactive means score below 0.9.
Tick one outcome: active, inactive

Before answering, review these 4 worked examples.
>  <Molecule>
ClC1=C(Cl)C(Cl)(Cl)C(Cl)=C1Cl

>  <Group Label>
inactive

$$$$
>  <Molecule>
Cc1cc(CCN2CCN(c3nsc4ccccc34)CC2)cc2c1NC(=O)CC2(C)C

>  <Group Label>
inactive

$$$$
>  <Molecule>
NC(=O)N1C(=O)C(C(=O)c2cc(Cl)cs2)c2cc(F)c(Cl)cc21 (stereo not given)

>  <Group Label>
active

$$$$
>  <Molecule>
O=C1OC2(c3ccccc31)c1cc(Br)c(O)c(Br)c1Oc1c2cc(Br)c(O)c1Br

>  <Group Label>
inactive

$$$$

# input for lookup
Please state the recorded outcome for this molecule: "O=[N+]([O-])c1ccc(O)cc1" inactive

---

- Read-out: Forkhead box O1 (FOXO1), FOXO1 (gene 2308)
- Assay Remarks: LTEA_HepaRG_FOXO1: Life Technologies and Expression Analysis (LTEA) Assay for Forkhead box O1 (FOXO1) using HepaRG (AID 2283456)
- Conditions Used: mRNA level, 48 h; actives raise or lower the signal
Calls of active or inactive are those of the source. Rule for the calls: active = hit-call score of the fitted dose curve at least 0.9, where 1 is the maximum; inactive = score below 0.9.
In this exercise, the only acceptable responses are active, inactive

>  <Molecule>
CCOC(=O)CC(O)(CC(=O)OCC)C(=O)OCC

>  <Group Label>
inactive

$$$$
>  <Molecule>
Oc1cc2ccccc2c2ccccc12

>  <Group Label>
inactive

$$$$
>  <Molecule>
CCCCCCCC(=O)O

>  <Group Label>
inactive

$$$$
>  <Molecule>
COc1ccc([N+](=O)[O-])cc1N

>  <Group Label>
inactive

$$$$
>  <Molecule>
CC(C)(C)c1cccc(C(C)(C)C)c1O

>  <Group Label>
inactive

$$$$
>  <Molecule>
c1ccc2c(c1)Cc1ccccc1-2

>  <Group Label>
inactive

$$$$

Status in this test for "CC(C)CCCCCCOC(=O)CCCCC(=O)OCCCCCCC(C)C" ? inactive

Hey, what did the test say about "CCCCCCC(=O)O" ? inactive

Test call for this molecule, please: "C[C@@H]1C[C@H]2[C@@H]3CCC4=CC(=O)C=C[C@]4(C)[C@@]3(F)[C@@H](O)C[C@]2(C)[C@@]1(O)C(=O)COP(=O)(O)O" inactive

Entry "CC#C[C@]1(O)CC[C@H]2[C@@H]3CCC4=CC(=O)CCC4=C3[C@@H](c3ccc(N(C)C)cc3)C[C@@]21C" : call = ? active

Kindly provide the recorded test outcome for the following molecule: CCCCC(CC)COC(=O)CCCCC(=O)OCC(CC)CCCC (stereo not drawn) inactive

Each molecule tested received a call. Report the one for "CC(=O)CC(C)(C)O" . inactive

Each molecule tested received a call. Report the one for "OCCC(F)(F)C(F)(F)C(F)(F)C(F)(F)C(F)(F)C(F)(F)C(F)(F)C(F)(F)F" . inactive

Outcome? "O=C(OCCOCCOC(=O)c1ccccc1)c1ccccc1" inactive

Hi, do you know how "Cc1cc(C)c(O)c(C)c1" came out in this test? inactive

What did this assay record as the result for "CCCOC(=O)c1ccc(O)cc1" ? inactive

Hi, do you know how CCc1ccc(CCOc2ccc(CC3SC(=O)NC3=O)cc2)nc1 (stereo not drawn) came out in this test? inactive

Short answer needed: outcome of this test for "CC(=O)NC1(c2cccc(F)c2)CCN(CC[C@@]2(c3ccc(Cl)c(Cl)c3)CN(c3ccccc3)C(=O)CO2)CC1" ? inactive

// param item: "C#C[C@]1(O)CC[C@H]2[C@@H]3CCC4=CC(=O)CC[C@@H]4[C@H]3CC[C@@]21C" ; yields the recorded call inactive

Look up the recorded call for "OC1CCCCC1" in this test. inactive

# outcome recorded in this test, key = "O=C(O)Cc1cc(I)c(Oc2cc(I)c(O)c(I)c2)c(I)c1" active

Please let me know the test result on file for "CCN(CC)CCNc1ccc(CNC=O)c2sc3ccc(OC)cc3c(=O)c12" . active

Outcome logged for "Cc1oc(-c2ccccc2)nc1CCOc1ccc(C[C@H](Nc2ccccc2C(=O)c2ccccc2)C(=O)O)cc1" in this assay: inactive

---

- Read-out: urokinase plasminogen activator (uPA), PLAU (gene 5328)
- Assay Remarks: BSK_KF3CT_uPA: BioMAP Diversity Plus: KF3CT Assay for urokinase plasminogen activator (uPA) Biomarker Activity (AID 2283075)
- Conditions Used: primary human keratinocytes with fibroblasts; actives raise or lower the signal
Activity calls are given as the source filed them. The calls were made as follows: active = hit-call score of the fitted dose curve at least 0.9, where 1 is the maximum; inactive = score below 0.9.
Result category, one only: active, inactive

Some entries whose results are on file:
>  <Compound>
CCCCCCCCCCCCc1ccccc1S(=O)(=O)O

>  <Group Label>
active

$$$$
>  <Compound>
CCc1nn(C2CCCCC2)c2cc(C3(C#N)CCC(C(=O)O)CC3)ccc12 (configuration not stated)

>  <Group Label>
active

$$$$
>  <Compound>
O=[N+]([O-])c1ccc(O)cc1

>  <Group Label>
inactive

$$$$
>  <Compound>
CC(C)(C)c1cc(C(C)(C)C)c(O)c(C(C)(C)C)c1

>  <Group Label>
inactive

$$$$
>  <Compound>
CCCOC(=O)c1ccc(O)cc1

>  <Group Label>
inactive

$$$$
>  <Compound>
COCC(C)O (configuration not stated)

>  <Group Label>
inactive

$$$$

Please share the test call associated with "C[C@@H]1C[C@H]2[C@@H]3CCC4=CC(=O)C=C[C@]4(C)[C@@]3(F)[C@@H](O)C[C@]2(C)[C@@]1(O)C(=O)COP(=O)(O)O" . inactive

Assay result, entry "CN(C)C=O" — outcome? inactive

Short answer needed: outcome of this test for "OCCC(F)(F)C(F)(F)C(F)(F)C(F)(F)C(F)(F)C(F)(F)F" ? inactive

In this assay, the call recorded for "Cc1cc(CCN2CCN(c3nsc4ccccc34)CC2)cc2c1NC(=O)CC2(C)C" was what? active

Could you kindly confirm the outcome this assay logged for "Oc1cc2ccccc2c2ccccc12" ? active

Lab log entry: "O=c1c(-c2ccc(O)cc2)coc2cc(O)ccc12" — outcome as called in the assay? inactive
